Where do the numbers come from? From ChEMBL document CHEMBL1150355.

test system: Rattus norvegicus; test: Induction of neosynthetized 2,3 mono-epoxysqualene synthesis in OFA rat liver at 2 mg/kg, po after 3 hrs relative to BIBB 515; assay type: functional
valueKind: Activity (%)
Express your answer in %, writing the number without its unit.

Field Activity (entry CN(C)Cc1ccc(-c2ccc(CCNS(=O)(=O)c3ccc(C#N)cc3)cc2)cc1 ) reads 6

Field Activity (entry O=S(=O)(c1ccc(Cl)cc1)N1CCN(Cc2ccc(-c3ccncc3)cc2)CC1 ) reads 45

Field Activity (entry CN(C)Cc1ccc(CN2CCN(S(=O)(=O)c3ccc(Cl)cc3)CC2)cc1 ) reads 55

Field Activity (entry O=C(c1ccc(Cl)cc1)N1CCN(Cc2ccc(-n3ccnc3)cc2)CC1 ) reads 156

Field Activity (entry O=C(c1ccc(Cl)cc1)N1CCN(Cc2ccc(-c3ccncc3)cc2)CC1 ) reads 55

Field Activity (entry CN(C)Cc1ccc(CN2CCN(C(=O)c3ccc(OC(F)(F)F)cc3)CC2)cc1 ) reads 100

Field Activity (entry O=C(c1ccc(Cl)cc1)N1CCC(=Cc2ccc(C3=NCCO3)cc2)CC1 ) reads 100

Field Activity (entry CN1CCN(c2ccc(CN3CCN(S(=O)(=O)c4ccc(Cl)cc4)CC3)cc2)CC1 ) reads 111
